- protocol_text: Half life in rat at 10 mL/h/kg, iv
- Type: ADME, organism-based
- condition: in vivo
observed_property: half-life (h)

Look over these answered cases.
Cc1cc(NC(=O)C2CCOCC2)nn1Cc1cc(Cl)ccc1OCc1ccccc1    1
Cc1cc(NC(=O)OC(C)(C)C)nn1Cc1cc(Cl)ccc1OCc1ccccc1    3
Cc1cc(C(=O)NCc2ccccn2)nn1Cc1cc(Cl)ccc1OCc1ccccc1    1.3

a = Cc1cc(NC(=O)Cc2ccccc2)nn1Cc1cc(Cl)ccc1OCc1ccccc1
b = Cc1cc(NC(=O)O[C@H]2CCOC2)nn1Cc1cc(Cl)ccc1OCc1ccccc1
c = Cc1cc(NC(=O)C2CCCCC2)nn1Cc1cc(Cl)ccc1OCC(C)C
d = Cc1cc(C(=O)NCc2ccccc2)nn1Cc1cc(Cl)ccc1OCc1ccccc1
Ask: rank_up(items): orders items by reported half-life in ascending numerical order. Order the labels as requested and list them.
Reply: b, c, a, d

* * *

- protocol_text: Distribution coefficient, logD at pH 7.4
- Assay type: physicochemical
- condition: octanol/water
# logD listing for each entry below

Cc1cc(C(=O)Nc2c(F)cccc2F)nn1Cc1cc(Cl)ccc1OCc1ccccc1    3.7

Ask: What does the data say about its logD? Entry: Cc1cc(C(=O)NCc2cccnc2)nn1Cc1cc(Cl)ccc1OCc1ccccc1
Reply: > 3.7

Ask: Further, for Cc1cc(NC(=O)C2CCCO2)nn1Cc1cc(Cl)ccc1OCc1ccccc1 (stereo not given) ?
Reply: > 3.7

Ask: Further, for Cc1cc(NC(=O)C(C)(C)c2ccccn2)nn1Cc1cc(Cl)ccc1OCc1ccccc1 ?
Reply: > 3.7

Ask: Further, for Cc1cc(C(=O)NCc2ccccn2)nn1Cc1cc(Cl)ccc1OCc1ccccc1 ?
Reply: > 3.7

Ask: Further, for Cc1cc(C(=O)NN2CCOCC2)nn1Cc1cc(Cl)ccc1OCC(C)C ?
Reply: 3.1

Ask: Further, for Cc1cc(NC(=O)C(C)(C)c2ccccc2)nn1Cc1cc(Cl)ccc1OCc1ccccc1 ?
Reply: > 3.7

Ask: Further, for Cc1cc(C(=O)NCc2ccncc2)nn1Cc1cc(Cl)ccc1OCc1ccccc1 ?
Reply: > 3.7

Ask: Further, for Cc1cc(NC(=O)O[C@H]2CCOC2)nn1Cc1cc(Cl)ccc1OCc1ccccc1 ?
Reply: 2.7

Ask: Further, for Cc1cc(NC(=O)C(C)C)nn1Cc1cc(Cl)ccc1OCc1ccccc1 ?
Reply: > 3.7

* * *

- Tested on: Brain
- protocol_text: Drug uptake in FCA-induced hypersensitivity rat brain at 10 mg/kg, po administered with DMSO as vehicle
- Assay type: ADME, organism-based
- Parameters: dose 10 mg/kg, route oral
- condition: in vivo, read-out: Drug uptake
observed_property: concentration (nM)
Numbers only here, please. The scale is nM.

Ask: What does the data say about its concentration? Entry: Cc1cc(NC(=O)OC(C)(C)C)nn1Cc1cc(Cl)ccc1OCc1ccccc1
Reply: 781

* * *

- protocol_text: Volume of distribution at steady state in rat at 10 mL/h/kg, iv
- Format: ADME, organism-based
- condition: in vivo, read-out: Vdss
observed_property: Vd (L/kg)

Cc1cc(C(=O)NCc2ccccn2)nn1Cc1cc(Cl)ccc1OCc1ccccc1    3.6
Cc1cc(NC(=O)OCc2ccccn2)nn1Cc1cc(Cl)ccc1OCc1ccccc1    3
Cc1cc(NC(=O)OCC(C)C)nn1Cc1cc(Cl)ccc1OCc1ccccc1    3.9
Cc1cc(NC(=O)C2CCCCC2)nn1Cc1cc(Cl)ccc1OCC(C)C    3.5
Cc1cc(C(=O)NCc2ccccc2)nn1Cc1cc(Cl)ccc1OCc1ccccc1    9.3
Cc1cc(NC(=O)OC(C)(C)C)nn1Cc1cc(Cl)ccc1OCc1ccccc1    8.6

P = Cc1cc(NC(=O)Cc2ccccc2)nn1Cc1cc(Cl)ccc1OCc1ccccc1
Q = Cc1cc(NC(=O)C2CCOCC2)nn1Cc1cc(Cl)ccc1OCc1ccccc1
Ask: # query: argmin of Vd over P and Q Your answer should be the label of the entry you select.
Reply: Q
